Please go through the items and note down their CC50.
- assay.method.text: Cellular toxicity assay in CEM cells
- Type: cell-based, human
- condition.info: human, CEM lymphoblastoid cells; CEM cells; read-out: Cytotoxicity; CC50 (μM) CEM
Express your answer in µM, writing the number without its unit.

Look up CC50: Cc1c(C(=O)C(=O)NCCCCCCCCO)c(C)n(C)c1C(=O)Nc1ccc(F)c(F)c1
4

Would you kindly share the measured CC50 for Cc1c(C(=O)C(=O)NCCCB(O)O)c(C)n(C)c1C(=O)Nc1ccc(F)c(F)c1 ?
26

Tell me the measured CC50 of O=S(=O)(NC1CC2=C(C#CC3CC3)C(c3ccc(F)cc3Cl)N=C(c3nccs3)N2C1)C1CC1 (stereo not shown) , please.
24
